System: BV-2
Experiment: Antineuroinflammatory activity in mouse BV2 cells assessed as inhibition of LPS-induced IL-1beta production after 24 hrs by ELISA
Format: functional, cell-based
Details: BV-2, 24 h
In plain terms, low IC50, meaning strictly below 10 µM, gives 1, and everything else gives 0.

Query: Does the reported IC50 of the following compound sit strictly below 10 µM? O=C(/C(=C/c1ccc(C(F)(F)F)cc1)c1ccc(F)cc1)N1CCN(c2ncccn2)CC1
Response: 1

Query: Does the reported IC50 of COc1ccc(/C=C(/C(=O)N2CCN(c3ncccn3)CC2)c2ccccc2)cc1 stay below 10 µM?
Response: 1

Query: Is the reported IC50 for O=C(/C(=C/C=C/c1ccccc1)c1ccc(F)cc1)N1CCN(c2ncccn2)CC1 strictly below 10 µM?
Response: 1

Query: Item O=C(/C(=C/c1ccccc1Cl)c1cccc(C(F)(F)F)c1)N1CCN(c2ncccn2)CC1 : IC50 beneath 10 µM, strictly?
Response: 0

Query: Hello, is IC50 of the following compound strictly smaller than 10 µM? COc1ccc(O)c(/C=C(/C(=O)N2CCN(c3ncccn3)CC2)c2ccccc2)c1
Response: 0

Query: Report whether reported IC50 is lower than 10 µM (strictly) for O=C(/C(=C/c1ccc(C(F)(F)F)cc1)c1cccc(C(F)(F)F)c1)N1CCN(c2ncccn2)CC1
Response: 1

Query: Please state whether IC50 is below 10 µM for O=C(/C(=C/c1cccc(Cl)c1)c1cccc(C(F)(F)F)c1)N1CCN(c2ncccn2)CC1
Response: 0

Query: I'd appreciate it if you could check whether COc1ccccc1/C=C(/C(=O)N1CCN(c2ncccn2)CC1)c1ccccc1 has IC50 smaller than 10 µM.
Response: 0

Query: Decide: IC50 of O=C(/C(=C/c1ccc(Cl)cc1)c1cccc(C(F)(F)F)c1)N1CCN(c2ncccn2)CC1 strictly below 10 µM?
Response: 0

Query: Threshold test, IC50 < 10 µM: O=C(/C(=C/c1ccc(C(F)(F)F)cc1)c1ccccc1)N1CCN(c2ncccn2)CC1
Response: 0

###

Test system: BV-2
Assay: Antineuroinflammatory activity in mouse BV2 cells assessed as inhibition of LPS-induced IL-1beta production after 24 hrs by ELISA
Format: functional, cell-based
Conditions: BV-2, 24 h
Answer each item with its documented IC50.

Query: Quote IC50 reported for O=C(/C(=C/c1ccc(F)cc1)c1ccc(F)cc1)N1CCN(c2ncccn2)CC1 please.
Response: 25.7 µM

Query: Recall and state the measured IC50 for COc1ccc(O)c(/C=C(/C(=O)N2CCN(c3ncccn3)CC2)c2cccc(C(F)(F)F)c2)c1 .
Response: > 50 µM

Query: Retrieve IC50 measured for O=C(/C(=C/c1cccc(Cl)c1)c1ccccc1)N1CCN(c2ncccn2)CC1 and print it.
Response: 7.8 µM

Query: Please give the documented IC50 of COc1ccccc1/C=C(/C(=O)N1CCN(c2ncccn2)CC1)c1ccc(F)cc1
Response: 18.4 µM

Query: Using the record for O=C(/C(=C/c1cccc(Cl)c1)c1ccc(F)cc1)N1CCN(c2ncccn2)CC1 , state its measured IC50.
Response: 11.9 µM

Query: Using known records, supply IC50 for O=C(/C(=C/c1ccccc1)c1ccc(F)cc1)N1CCN(c2ncccn2)CC1
Response: 10.2 µM

Query: Look up and state reported IC50 for COc1ccc(O)c(/C=C(/C(=O)N2CCN(c3ncccn3)CC2)c2ccc(F)cc2)c1
Response: > 50 µM

Query: In one line, give reported IC50 of the entry O=C(/C(=C/c1ccccc1)c1ccccc1)N1CCN(c2ncccn2)CC1 .
Response: > 50 µM

Query: Complete the entry with IC50 for O=C(/C(=C/c1ccccc1)c1cccc(C(F)(F)F)c1)N1CCN(c2ncccn2)CC1
Response: 25.3 µM

Query: Please indicate IC50 recorded for COc1ccc(/C=C(/C(=O)N2CCN(c3ncccn3)CC2)c2ccc(F)cc2)cc1
Response: 42.9 µM

###

Test system: BV-2
Assay: Antineuroinflammatory activity in mouse BV2 cells assessed as inhibition of LPS-induced IL-1beta production after 24 hrs by ELISA
Type: functional, cell-based
Conditions: BV-2, 24 h
pIC50: −log10 of the molar value.
Would you mind labelling by pIC50? At or over 5 is True, under is False.

Query: Hi, just wondering whether O=C(/C(=C/C=C/c1ccccc1)c1cccc(C(F)(F)F)c1)N1CCN(c2ncccn2)CC1 shows pIC50 of 5 or higher.
Response: True

Query: Does pIC50 meet or surpass 5 for O=C(/C(=C/c1ccc(F)cc1)c1cccc(C(F)(F)F)c1)N1CCN(c2ncccn2)CC1 ?
Response: False

Query: In plain terms: is recorded pIC50 at least 5 for COc1ccccc1/C=C(/C(=O)N1CCN(c2ncccn2)CC1)c1cccc(C(F)(F)F)c1 ?
Response: False

Query: Entry COc1ccc(/C=C(/C(=O)N2CCN(c3ncccn3)CC2)c2cccc(C(F)(F)F)c2)cc1 : is its pIC50 no less than 5?
Response: False

Query: pIC50 >= 5 for O=C(/C(=C/c1ccccc1Cl)c1ccc(F)cc1)N1CCN(c2ncccn2)CC1 ?
Response: True

Query: For this compound, is measured pIC50 5 or higher? O=C(/C(=C/c1ccc(Cl)cc1)c1ccccc1)N1CCN(c2ncccn2)CC1
Response: False

Query: Could you tell me if the measured pIC50 of O=C(/C(=C/c1ccc(Cl)cc1)c1ccc(F)cc1)N1CCN(c2ncccn2)CC1 reaches 5 or more?
Response: False

###

Test: Permeability of the compound after 10 hrs by PAMPA
Format: ADME
Conditions: read-out: permeability
OBSERVABLE: Papp at 10 h
Please report the result as a number followed by the unit.

Query: State, in one line, measured Papp at 10 h of O=C(/C(=C/c1ccccc1Cl)c1cccc(C(F)(F)F)c1)N1CCN(c2ncccn2)CC1
Response: 15.1 ×10⁻⁶ cm/s

Query: For the compound O=C(/C(=C/C=C/c1ccccc1)c1cccc(C(F)(F)F)c1)N1CCN(c2ncccn2)CC1 , report Papp at 10 h.
Response: 12.6 ×10⁻⁶ cm/s

Query: Please supply the value of reported Papp at 10 h for the item COc1ccc(O)c(/C=C(/C(=O)N2CCN(c3ncccn3)CC2)c2ccc(F)cc2)c1
Response: 6.4 ×10⁻⁶ cm/s

Query: In one line, give reported Papp at 10 h of the entry Oc1ccc(/C=C/c2cc(O)cc(O)c2)cc1 .
Response: 1.1 ×10⁻⁶ cm/s

Query: Provide Papp at 10 h value for the following compound: O=C(/C(=C/c1ccc(C(F)(F)F)cc1)c1cccc(C(F)(F)F)c1)N1CCN(c2ncccn2)CC1
Response: 9.3 ×10⁻⁶ cm/s

Query: Specify Papp at 10 h for O=C(/C(=C/c1ccc(F)cc1)c1cccc(C(F)(F)F)c1)N1CCN(c2ncccn2)CC1 and stop.
Response: 12.3 ×10⁻⁶ cm/s

Query: Tell me its Papp at 10 h given O=C(/C(=C/c1ccc(Cl)cc1)c1ccccc1)N1CCN(c2ncccn2)CC1 as the entry.
Response: 7.4 ×10⁻⁶ cm/s

Query: Retrieve Papp at 10 h measured for COc1ccccc1/C=C(/C(=O)N1CCN(c2ncccn2)CC1)c1ccccc1 and print it.
Response: 12.3 ×10⁻⁶ cm/s

Query: Note Papp at 10 h for the compound shown: COc1ccc(O)c(/C=C(/C(=O)N2CCN(c3ncccn3)CC2)c2ccccc2)c1
Response: 14.1 ×10⁻⁶ cm/s

Query: Entry O=C(/C(=C/c1ccc(C(F)(F)F)cc1)c1ccc(F)cc1)N1CCN(c2ncccn2)CC1 needs its Papp at 10 h filled in; supply it.
Response: 7.6 ×10⁻⁶ cm/s

Query: Report measured Papp at 10 h; entry is COc1ccc(/C=C(/C(=O)N2CCN(c3ncccn3)CC2)c2cccc(C(F)(F)F)c2)cc1
Response: 14.7 ×10⁻⁶ cm/s

Query: Supply recorded Papp at 10 h for COc1ccc(O)c(/C=C(/C(=O)N2CCN(c3ncccn3)CC2)c2cccc(C(F)(F)F)c2)c1 here.
Response: 12.7 ×10⁻⁶ cm/s

Query: Identify the reported Papp at 10 h for the following entry. COc1ccccc1/C=C(/C(=O)N1CCN(c2ncccn2)CC1)c1ccc(F)cc1
Response: 13.8 ×10⁻⁶ cm/s

Query: Query Papp at 10 h for O=C(/C(=C/c1ccc(Cl)cc1)c1cccc(C(F)(F)F)c1)N1CCN(c2ncccn2)CC1
Response: 5.1 ×10⁻⁶ cm/s

Query: Provide Papp at 10 h value for the following compound: O=C(/C(=C/c1cccc(Cl)c1)c1cccc(C(F)(F)F)c1)N1CCN(c2ncccn2)CC1
Response: 10.7 ×10⁻⁶ cm/s

Query: Give Papp at 10 h for COc1ccc(/C=C(/C(=O)N2CCN(c3ncccn3)CC2)c2ccc(F)cc2)cc1
Response: 10.5 ×10⁻⁶ cm/s

Query: Report measured Papp at 10 h; entry is O=C(/C(=C/c1ccccc1)c1ccc(F)cc1)N1CCN(c2ncccn2)CC1
Response: 11.2 ×10⁻⁶ cm/s

Query: Entry COc1ccccc1/C=C(/C(=O)N1CCN(c2ncccn2)CC1)c1cccc(C(F)(F)F)c1 needs its Papp at 10 h filled in; supply it.
Response: 9.7 ×10⁻⁶ cm/s

Query: Report Papp at 10 h, nothing else, for this compound: O=C(/C(=C/c1ccc(Cl)cc1)c1ccc(F)cc1)N1CCN(c2ncccn2)CC1
Response: 7.8 ×10⁻⁶ cm/s

Query: Please supply the value of reported Papp at 10 h for the item O=C(/C(=C/c1ccc(C(F)(F)F)cc1)c1ccccc1)N1CCN(c2ncccn2)CC1
Response: 8.2 ×10⁻⁶ cm/s

Query: Report Papp at 10 h, nothing else, for this compound: O=C(/C(=C/c1ccccc1Cl)c1ccccc1)N1CCN(c2ncccn2)CC1
Response: 9.4 ×10⁻⁶ cm/s

Query: Answer with the recorded Papp at 10 h for the compound listed here: O=C(/C(=C/c1ccccc1)c1cccc(C(F)(F)F)c1)N1CCN(c2ncccn2)CC1
Response: 7.2 ×10⁻⁶ cm/s

Query: For the compound O=C(/C(=C/c1ccccc1Cl)c1ccc(F)cc1)N1CCN(c2ncccn2)CC1 , report Papp at 10 h.
Response: 11.3 ×10⁻⁶ cm/s

Query: Give recorded Papp at 10 h. O=C(/C(=C/c1cccc(Cl)c1)c1ccccc1)N1CCN(c2ncccn2)CC1
Response: 11.2 ×10⁻⁶ cm/s

Query: Determine its reported Papp at 10 h: O=C(/C(=C/C=C/c1ccccc1)c1ccc(F)cc1)N1CCN(c2ncccn2)CC1
Response: 14.9 ×10⁻⁶ cm/s

Query: Identify measured Papp at 10 h associated with O=C(/C(=C/c1ccc(F)cc1)c1ccc(F)cc1)N1CCN(c2ncccn2)CC1
Response: 14.3 ×10⁻⁶ cm/s

Query: Dear colleague, please send me the reported Papp at 10 h for COc1ccc(/C=C(/C(=O)N2CCN(c3ncccn3)CC2)c2ccccc2)cc1 when you can.
Response: 10.3 ×10⁻⁶ cm/s

Query: Supply measured Papp at 10 h of O=C(/C(=C/c1ccccc1)c1ccccc1)N1CCN(c2ncccn2)CC1 in your reply.
Response: 14.3 ×10⁻⁶ cm/s

Query: Could you please provide reported Papp at 10 h for O=C(/C(=C/c1cccc(Cl)c1)c1ccc(F)cc1)N1CCN(c2ncccn2)CC1 ? Thanks!
Response: 9.4 ×10⁻⁶ cm/s
